Tested on: NHBE cells
Experiment: Biolog metabolic array: substrate use by NHBE cells with or without CA09 infection
Format: cell-based, human
Settings: Control (uninfected) NHBE cells, 8 hr
We use 2 as the dividing line for 590 nm absorbance normalized to zero hour (substrate use), 8 hr: on or above the line is met, below is not met.

Before answering, review these 5 worked examples.
O=C(O)CCC(=O)C(=O)O [a-Keto-Glutaric Acid]
not met
CC(O)C(=O)O [L-Lactic Acid (DL)]
met
O=C(CO)[C@@H](O)[C@H](O)[C@H](O)COP(=O)(O)O [D-Fructose-6-Phosphate]
not met
CCC(=O)O [Propionic Acid]
not met
OC[C@H]1O[C@@H]2O[C@H]3[C@H](O)[C@@H](O)[C@@H](O[C@H]4[C@H](O)[C@@H](O)[C@@H](O[C@H]5[C@H](O)[C@@H](O)[C@@H](O[C@H]6[C@H](O)[C@@H](O)[C@@H](O[C@H]7[C@H](O)[C@@H](O)[C@@H](O[C@H]1[C@H](O)[C@H]2O)O[C@@H]7CO)O[C@@H]6CO)O[C@@H]5CO)O[C@@H]4CO)O[C@@H]3CO [a-Cyclo-dextrin]
met

## Task Assess whether reported 590 nm absorbance normalized to zero hour (substrate use), 8 hr for OC[C@H]1O[C@H](O[C@H]2O[C@H](CO)[C@@H](O)[C@H](O)[C@H]2O)[C@H](O)[C@@H](O)[C@@H]1O [D-Trehalose] sits at 2 or higher.
## Result met

## Task Same thing, different molecule: O=C[C@@H](O)[C@H](O)[C@H](O)CO [D-Arabinose]
## Result not met

## Task Same thing, different molecule: C[C@@H]1OC(O)[C@@H](O)[C@H](O)[C@@H]1O (stereo partly drawn) [L-Fucose]
## Result not met

====

Test system: NHBE cells
Experiment: Biolog metabolic array: substrate use by NHBE cells with or without CA09 infection
Type: cell-based, human
Details: Virus (CA09-infected NHBE cells, MOI 1); 9 hr
Label class 1 when 590 nm absorbance normalized to zero hour (substrate use), 9 hr < 0.6; otherwise class 0.

## Task Does the reported 590 nm absorbance normalized to zero hour (substrate use), 9 hr of the following compound sit strictly below 0.6? `OC[C@@H](O)[C@@H](O)[C@@H](O)CO`
## Result class 1

====

Test system: NHBE cells
Experiment: Biolog metabolic array: substrate use by NHBE cells with or without CA09 infection
Type: cell-based, human
Settings: Control (uninfected) NHBE cells, 9 hr
// reported 590 nm absorbance normalized to zero hour (substrate use), 9 hr for each item listed
Respond with the number and no other words.

Worked cases, 590 nm absorbance normalized to zero hour (substrate use), 9 hr given:
CO[C@H]1O[C@H](CO)[C@@H](O)[C@H](O)[C@@H]1O [a-Methyl-D-Mannoside]
2.16
C[C@H](O)[C@H](O)[C@@H](O)[C@@H](O)C=O
2.71
OC[C@H]1O[C@@H](O[C@H]2[C@H](O)[C@@H](O)[C@@H](O)O[C@@H]2CO)[C@H](O)[C@@H](O)[C@H]1O
1.01

Next, consider the following compound.
## Task What does the data say about its 590 nm absorbance normalized to zero hour (substrate use), 9 hr? Entry: CO[C@H]1O[C@H](CO)[C@@H](O)[C@H](O)[C@H]1O [a-Methyl-D-Glucoside]
## Result 0.79
